# Tested on: RAW-Dual
# Procedure Text: IRF Lucia reporter activity, fold change vs agonist alone; cytotoxicity flag (confluency mask): not cytotoxic; higher = enhanced IRF activity
# Experimental Parameters: agonist: 3'3'-cGAMP (STING) 10 ug/mL
Over roughly 2,900 compounds, “IRF Lucia reporter activity, fold change vs agonist alone” has its median near 0.9; the highest 2% begin near 2.8. The list comes from a sample in which the highest values are over-represented; it also holds close analogues and randomly drawn compounds.
Exercise: state measured IRF Lucia reporter activity for each of the compounds provided.
Answers are plain numbers.

CC(C)CC(NC(=O)CNC(=O)c1cc(Cl)ccc1Cl)B(O)O (stereo unspecified) (library stock concentration (final ~1000-fold dilution): 10 mM) = 1
Cc1oncc1C(=O)Nc1ccc(C(F)(F)F)cc1 (library stock concentration (final ~1000-fold dilution): 10 mM) = 1.08
CC(=O)Oc1cc(C(F)(F)F)ccc1C(=O)O (library stock concentration (final ~1000-fold dilution): 10 mM) = 1.03
O=C(Nc1ccc(OC(F)(F)Cl)cc1)c1cnc(N2CCC(O)C2)c(-c2ccn[nH]2)c1 (stereo unspecified) (library stock concentration (final ~1000-fold dilution): 10 mM) = 0.296
O=c1cccccc1O (library stock concentration (final ~1000-fold dilution): 10 mM) = 0.664

Take each entry in turn and give its IRF Lucia reporter activity.
1. O=C(O)CCc1c[nH]c2ccccc12 (library stock concentration (final ~1000-fold dilution): 10 mM)
2. OCC1=CC(O)C2C=COC(OC3OC(CO)C(O)C(O)C3O)C12 (stereo unspecified) (library stock concentration (final ~1000-fold dilution): 10 mM)

## Output
0.921
1.05

----------
# System: RAW-Dual
# Procedure Text: IRF Lucia reporter activity, fold change vs agonist alone; cytotoxicity flag (confluency mask): cytotoxic (confluency <70% of control); higher = enhanced IRF activity
# Experimental Parameters: agonist: LPS (TLR4) 0.1 ug/mL
Over roughly 2,900 compounds, “IRF Lucia reporter activity, fold change vs agonist alone” has its median near 0.9; the highest 2% begin near 2.8. The full list was thinned out, with the highest values kept by preference.
Quantity Measured: IRF Lucia reporter activity
Give bare numbers.

COCCNCCc1cccc(Nc2ncc3c(n2)-c2ccccc2C(c2ccccc2F)C3)c1 (stereo not drawn) (library stock concentration (final ~1000-fold dilution): 10 mM) = 0.159
Cc1ccc(Oc2ccnc3cc(-c4cnn(C5CCNCC5)c4)ccc23)cc1 (library stock concentration (final ~1000-fold dilution): 10 mM) = 0.134

## Input // returns reported IRF Lucia reporter activity for input O=C(CCCCCCC(=O)N/N=C/c1ccc(N(c2ccccc2)c2ccccc2)cc1)NO (library stock concentration (final ~1000-fold dilution): 10 mM)
## Output 0.533

----------
# Tested on: RAW-Dual
# Procedure Text: IRF Lucia reporter activity, fold change vs agonist alone; cytotoxicity flag (confluency mask): cytotoxic (confluency <70% of control); higher = enhanced IRF activity
# Experimental Parameters: agonist: 3'3'-cGAMP (STING) 10 ug/mL
The full ranking holds about 2,900 compounds; the median of “IRF Lucia reporter activity, fold change vs agonist alone” is about 0.9, and the highest 2% start at about 2.8. This excerpt belongs to a sample that is enriched for the highest values.
Rule: IRF Lucia reporter activity under 0.3 gives 0 (no), otherwise 1 (yes).

Please review the following examples before continuing.
CC(C)(C)CC1NC(C(=O)NC2CCC(O)CC2)C(c2cccc(Cl)c2F)C12C(=O)Nc1cc(Cl)ccc12 (stereo unspecified) (library stock concentration (final ~1000-fold dilution): 10 mM) = 1 (yes)
O=C(Nc1cc(C(F)(F)F)ccc1C(F)(F)F)c1cc(Br)ccc1O (library stock concentration (final ~1000-fold dilution): 10 mM) = 0 (no)
CNCCC=C1c2ccccc2CCc2ccccc21.Cl (library stock concentration (final ~1000-fold dilution): 10 mM) = 1 (yes)
CCC1=CC2CN(C1)Cc1c([nH]c3ccccc13)C(C(=O)OC)(c1cc3c(cc1OC)N(C)C1C(O)(C(=O)OC)C(OC(C)=O)C4(CC)C=CCN5CCC31C54)C2 (stereo unspecified) (library stock concentration (final ~1000-fold dilution): 10 mM) = 1 (yes)
COc1cc2nccc(Oc3ccc(NC(=O)Nc4ccc(F)cc4F)c(F)c3)c2cc1OC (library stock concentration (final ~1000-fold dilution): 10 mM) = 1 (yes)

Pending compound:
## Input Has COc1ccc(-c2cc3c(C)nc(N)nc3n(C3CCC(OCCO)CC3)c2=O)cn1 (stereo unspecified) (library stock concentration (final ~1000-fold dilution): 10 mM) a recorded IRF Lucia reporter activity greater than or equal to 0.3?
## Output 0 (no)

----------
# Test system: RAW-Dual
# Procedure Text: IRF Lucia reporter activity, fold change vs agonist alone; cytotoxicity flag (confluency mask): not cytotoxic; higher = enhanced IRF activity
# Experimental Parameters: agonist: LPS (TLR4) 0.1 ug/mL
In all, about 2,900 compounds were measured (“IRF Lucia reporter activity, fold change vs agonist alone”: median about 0.9, highest 2% from about 2.8 on). Only a selection was taken, and the highest values are over-represented in it overall.
# label = True if IRF Lucia reporter activity >= 1 else False

See these solved cases before continuing.
CN(C)CCOc1ccc(-c2nc(-c3ccncc3)c(-c3ccc4c(c3)CC/C4=N\O)[nH]2)cc1 (library stock concentration (final ~1000-fold dilution): 10 mM) = True
Cc1cc(C)c(/C=C2\C(=O)Nc3ccccc32)[nH]1 (library stock concentration (final ~1000-fold dilution): 10 mM) = False
OCCn1cc(-c2ccc3c(c2)CC/C3=N\O)c(-c2ccncc2)n1 (library stock concentration (final ~1000-fold dilution): 10 mM) = False
COc1ncc(-c2ccc3nccc(-c4ccnnc4)c3c2)cc1NS(=O)(=O)c1ccc(F)cc1F (library stock concentration (final ~1000-fold dilution): 10 mM) = True

Next item in the queue.
## Input Determine whether measured IRF Lucia reporter activity meets or exceeds 1 for CCC(C)CC(C)CCCCCCCCC(=O)NC1CC(O)C(NCCN)NC(=O)C2C(O)CCN2C(=O)C(C(O)CCN)NC(=O)C(C(O)C(O)c2ccc(O)cc2)NC(=O)C2CC(O)CN2C(=O)C(C(C)O)NC1=O (stereo not given) (library stock concentration (final ~1000-fold dilution): 10 mM water)
## Output False

----------
# Tested on: RAW-Dual
# Procedure Text: IRF Lucia reporter activity, fold change vs agonist alone; cytotoxicity flag (confluency mask): cytotoxic (confluency <70% of control); higher = enhanced IRF activity
# Experimental Parameters: agonist: LPS (TLR4) 0.1 ug/mL
Over roughly 2,900 compounds, “IRF Lucia reporter activity, fold change vs agonist alone” has its median near 0.9; the highest 2% begin near 2.8. What follows is part of a selection rich in the highest values, with near analogues and random picks from the rest.
Lab note: anything with IRF Lucia reporter activity at or over 2 counts as MET; the rest go in NOT MET.

Answered examples (4):
CN1CCN(CCCN2c3ccccc3Sc3ccc(Cl)cc32)CC1.O=C(O)/C=C\C(=O)O.O=C(O)/C=C\C(=O)O (library stock concentration (final ~1000-fold dilution): 10 mM) = NOT MET
CCC1(O)CC2CN(CCc3c([nH]c4ccccc34)C(C(=O)OC)(c3cc4c(cc3OC)N(C)C3C(O)(C(=O)OC)C(OC(C)=O)C5(CC)C=CCN6CCC43C65)C2)C1.O=S(=O)(O)O (stereo not given) (library stock concentration (final ~1000-fold dilution): 10 mM) = MET
Cc1nc(Nc2cnn(C3CCNCC3)c2)nc2c1N(C)C(=O)c1cc3ccccc3cc1N2C (library stock concentration (final ~1000-fold dilution): 10 mM) = MET
CN1CC2c3ccccc3Oc3ccc(Cl)cc3C2C1.O=C(O)/C=C\C(=O)O (stereo not given) (library stock concentration (final ~1000-fold dilution): 10 mM) = NOT MET

Now for another entry.
## Input Quick check: does CCC1=CC2CN(C1)Cc1c([nH]c3ccccc13)C(C(=O)OC)(c1cc3c(cc1OC)N(C)C1C(O)(C(=O)OC)C(OC(C)=O)C4(CC)C=CCN5CCC31C54)C2 (stereo not given) (library stock concentration (final ~1000-fold dilution): 10 mM) have IRF Lucia reporter activity greater than or equal to 2?
## Output MET

----------
Hi there, I'd appreciate the recorded IRF Lucia reporter activity for every entry that follows.
# Test system: RAW-Dual
# Procedure Text: IRF Lucia reporter activity, fold change vs agonist alone; cytotoxicity flag (confluency mask): cytotoxic (confluency <70% of control); higher = enhanced IRF activity
# Experimental Parameters: agonist: LPS (TLR4) 0.1 ug/mL
The full ranking holds about 2,900 compounds; the median of “IRF Lucia reporter activity, fold change vs agonist alone” is about 0.9, and the highest 2% start at about 2.8. The full list was thinned out, with the highest values kept by preference.
Numbers only.

These recorded examples may help you get a feel for the data.
CS(=O)(=O)O.CS(=O)(=O)O.Cc1ccc(C(=O)Nc2ccc(CN3CCN(C)CC3)c(C(F)(F)F)c2)cc1C#Cc1cnc2[nH]ncc2c1 (library stock concentration (final ~1000-fold dilution): 10 mM) = 0.0192
Cc1cc2c(F)c(Oc3ncnn4cc(OCC(C)OC(=O)C(C)N)c(C)c34)ccc2[nH]1 (stereo not drawn) (library stock concentration (final ~1000-fold dilution): 10 mM) = 2.13

## Input // lookup IRF Lucia reporter activity for COc1cc2c(Oc3ccc4[nH]c(C)cc4c3F)ncnc2cc1OCCCN1CCCC1.O=C(O)/C=C\C(=O)O (library stock concentration (final ~1000-fold dilution): 10 mM)
## Output 1.92
